# Test system: Trypanosoma brucei rhodesiense
# experiment-notes: In Vitro measurement of inhibition of thymidine uptake in cell culture of Trypanosoma rhodesiense
# Assay type: functional
# condition-label: read-out: ID50 (the source's name)
Fulfilled if IC50 is below 0.8 µg/mL. Not fulfilled if not; exact matches included in Not fulfilled.

Field: below-cutoff. Rule: recorded IC50 strictly less than 0.8 µg/mL. Subject: `C[n+]1c(COc2ccc(C(=N)N)cc2)cn2ccccc21.Cl.[Cl-]`
Fulfilled

Field: below-cutoff. Rule: recorded IC50 strictly less than 0.8 µg/mL. Subject: `CN(C)C(=N)N/N=C/c1ccc(-c2cn3ccsc3[n+]2C)cc1.I.[I-]`
Not fulfilled

Field: below-cutoff. Rule: recorded IC50 strictly less than 0.8 µg/mL. Subject: `Br.C[n+]1c(-c2ccc(/C=N/NC(=N)NN3CCOCC3)cc2)cn2ccccc21.[Br-]`
Not fulfilled

Field: below-cutoff. Rule: recorded IC50 strictly less than 0.8 µg/mL. Subject: `CCSc1ccc2n(c1)cc(-c1ccc(/C=N/Nc3nc(N)nc(N)n3)cc1)[n+]2C.Cc1ccc(S(=O)(=O)[O-])cc1`
Fulfilled

* * *

# System: Mus musculus
# experiment-notes: Trypanocidal Activity at I.C.E. value 0.57 when administered subcutaneously.
# Type: functional
observable: CD50 (mg/kg)
# number only, unit mg/kg dropped from output

What measured CD50 goes with `C[n+]1c(-c2ccc(/C=N/NC(=O)c3ccc(N)cc3)cc2)cn2ccccc21.Cc1ccc(S(=O)(=O)[O-])cc1` ?
0.8

What measured CD50 goes with `Br.CCNC(=N)N/N=C/c1ccc(-c2cn3ccc(C)cc3[n+]2C)cc1.[Br-]` ?
0.1

What measured CD50 goes with `Br.C[n+]1c(COc2ccc(/C=N/NC(=N)NO)cc2)cn2ccccc21.[Br-]` ?
0.4

What measured CD50 goes with `Br.CC/N=C(\NCC)N/N=C/c1ccc(-c2cn3ccccc3[n+]2C)cc1.[Br-]` ?
1.6

What measured CD50 goes with `Br.C[n+]1c(-c2ccc(/C=N/NC3=NCCN3)cc2)cn2ccccc21.[Br-]` ?
0.8

* * *

# Tested on: Mus musculus
# experiment-notes: Trypanocidal Activity at I.C.E. value 0.36 when administered subcutaneously.
# Format: functional
observable: CD50 (mg/kg)
# number only, unit mg/kg dropped from output

What measured CD50 goes with `Br.C[n+]1cccc(COc2ccc(/C=N/NC3=NCCN3)cc2)c1.[Br-]` ?
3.3

What measured CD50 goes with `Br.C=CC[n+]1c(-c2ccc(/C=N/NC(=N)N)cc2)cn2ccccc21.[Br-]` ?
0.4

What measured CD50 goes with `Br.C[n+]1c(COc2ccc(/C=N/NC(=N)N3CCCC3)cc2)cn2ccccc21.[Br-]` ?
0.8

What measured CD50 goes with `Br.CC/N=C(\NCC)N/N=C/c1ccc(OCc2cn3cc(C)ccc3[n+]2C)cc1.[Br-]` ?
1.6

* * *

# System: Mus musculus
# experiment-notes: Trypanocidal Activity at I.C.E. value 0.32 when administered subcutaneously.
# Assay type: functional
observable: CD50 (mg/kg)
# number only, unit mg/kg dropped from output

Request: CD50, test system Mus musculus, entry `Br.C/N=C(/NC)N/N=C/c1ccc(OCc2cn3c(C)cccc3[n+]2C)cc1.[Br-]`
3.3

Request: CD50, test system Mus musculus, entry `Br.C[n+]1c(-c2ccc(/C=N/NC(=N)N)cc2)c(Br)n2ccccc21.[Br-]`
1.6

Request: CD50, test system Mus musculus, entry `Br.Cc1ccn2cc(COc3ccc(/C=N/NC(=N)N4CCCC4)cc3)[n+](C)c2c1.[Br-]`
0.4

Request: CD50, test system Mus musculus, entry `Cc1ccc(S(=O)(=O)[O-])cc1.Cn1cc[n+](C)c1/C=C/c1ccc(/C=N/NC(=O)c2ccc(N)cc2)cc1`
26
